Target: Bifunctional 3'-5' exonuclease/ATP-dependent helicase WRN [480-1251] (UniProt Q14191)
Construct: 480-1251
Sequence (Q14191 480-1251): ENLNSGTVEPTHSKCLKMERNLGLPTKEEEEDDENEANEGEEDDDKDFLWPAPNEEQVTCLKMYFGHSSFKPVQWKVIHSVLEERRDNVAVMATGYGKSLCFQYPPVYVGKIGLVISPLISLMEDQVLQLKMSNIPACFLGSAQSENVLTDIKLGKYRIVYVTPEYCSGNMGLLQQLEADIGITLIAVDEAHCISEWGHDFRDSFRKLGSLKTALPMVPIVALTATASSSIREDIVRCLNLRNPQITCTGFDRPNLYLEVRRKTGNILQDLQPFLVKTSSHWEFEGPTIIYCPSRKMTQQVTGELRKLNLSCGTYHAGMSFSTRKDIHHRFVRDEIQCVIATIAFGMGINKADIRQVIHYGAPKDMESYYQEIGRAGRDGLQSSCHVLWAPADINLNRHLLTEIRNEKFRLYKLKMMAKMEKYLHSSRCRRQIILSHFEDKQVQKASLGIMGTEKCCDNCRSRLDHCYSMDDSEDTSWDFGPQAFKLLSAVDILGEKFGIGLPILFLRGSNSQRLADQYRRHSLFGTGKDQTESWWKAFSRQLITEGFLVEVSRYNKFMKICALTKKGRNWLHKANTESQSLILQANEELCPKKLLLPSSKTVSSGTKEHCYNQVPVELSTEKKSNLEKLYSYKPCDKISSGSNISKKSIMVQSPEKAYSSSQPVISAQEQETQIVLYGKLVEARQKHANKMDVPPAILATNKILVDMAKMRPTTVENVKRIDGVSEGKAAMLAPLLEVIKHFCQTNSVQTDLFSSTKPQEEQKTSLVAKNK
Experiment: Biochemical Activity Assays
Rule: measured IC50 below 0.05 µM gets T; anything equal to or greater than 0.05 µM gets F.

Record CCc1c(N2CCN(C(=O)c3ncnc(C)c3O)CC2)c(=O)n2nc(-c3cc(OC)c4nn(C)cc4c3)nc2n1CC(=O)Nc1ccc(C(F)(F)F)cc1Cl : is its IC50 strictly below 0.05 µM?
T

Record CCc1c(N2CCN(C(=O)C3(CO)CC3)CC2)c(=O)n2nc(C3=CCOCC3)nc2n1CC(=O)Nc1ccc(C(F)(F)F)cc1Cl : is its IC50 strictly below 0.05 µM?
F

Record CCc1c(N2CCN(C(=O)c3ncnc(C)c3O)CC2)c(=O)n2nc(-c3ccc4c(c3)OCO4)nc2n1CC(=O)Nc1ccc(C(F)(F)F)c2c1CC2 : is its IC50 strictly below 0.05 µM?
T

Record CCc1c(N2CCN(C(=O)c3ncnc(C)c3O)CC2)c(=O)n2nc(C3=CCOCC3)nc2n1CC(=O)Nc1ccc(C(F)(F)F)cn1 : is its IC50 strictly below 0.05 µM?
F

Record CCc1c(N2CCN(C(=O)C(F)(F)C3(O)CCC3)CC2)c(=O)n2nc(C3=CCOCC3)nc2n1CC(=O)Nc1ccc(C(F)(F)F)cc1Cl : is its IC50 strictly below 0.05 µM?
F

Record CCc1c(N2CCN(C(=O)c3ccccc3NS(=O)(=O)C3CC3)CC2)c(=O)n2nc(-c3ccc4c(c3)OCO4)nc2n1CC(=O)Nc1ccc(C(F)(F)F)c2c1CC2 : is its IC50 strictly below 0.05 µM?
F

Record CCc1c(N2CCN(C(=O)c3ccnc(C)c3O)CC2)c(=O)n2nc(-c3ccc4c(c3)COC4(C)C)nc2n1CC(=O)Nc1ccc(C(F)(F)F)cc1Cl : is its IC50 strictly below 0.05 µM?
T

Record CCc1c(N2CCN(C(=O)c3ncnc(C)c3O)CC2)c(=O)n2nc(-c3ccc4c(c3)CO[C@@H]4C(F)(F)F)nc2n1CC(=O)Nc1ccc(C(F)(F)F)cc1Cl : is its IC50 strictly below 0.05 µM?
F

Record CCc1c(N2CCN(C(=O)c3ncnc(C)c3O)CC2)c(=O)n2nc(-c3cccc4sc(C)nc34)nc2n1CC(=O)Nc1ccc(C(F)(F)F)cc1Cl : is its IC50 strictly below 0.05 µM?
T

Record CCc1c(N2CCN(C(=O)c3nocc3O)CC2)c(=O)n2nc(-c3ccc4c(c3)COC4)nc2n1CC(=O)Nc1ccc(C(F)(F)F)cc1Cl [WO2025049746, Example 439] : is its IC50 strictly below 0.05 µM?
F

Record CCc1c(N2CCN(C(=O)c3ccccc3NS(=O)(=O)C3CC3)CC2)c(=O)n2nc(C3=CCOCC3)nc2n1CC(=O)Nc1ccc(C(F)(F)F)cc1Cl : is its IC50 strictly below 0.05 µM?
T

----------
Target: Bifunctional 3'-5' exonuclease/ATP-dependent helicase WRN [480-1251] (UniProt Q14191)
Construct: 480-1251
Experiment: Biochemical Activity Assays
observed.property: IC50 (µM)
Give a bare numeral; the unit µM is implied.

What value of measured IC50 is listed for CCc1c(N2CCN(C(=O)c3ncnc(C)c3O)CC2)c(=O)n2nc(-c3ccc4c(c3)CC(C)(C)N4C(C)=O)nc2n1CC(=O)Nc1ccc(C(F)(F)F)cc1Cl [WO2025049746, Example 296] ?
0.038

What value of measured IC50 is listed for CCc1c(N2CCCN(C(=O)c3ncnc(C)c3O)CC2)c(=O)n2nc(C3=CCOCC3)nc2n1CC(=O)Nc1ccc(C(F)(F)F)cc1Cl [WO2025049746, Example 340] ?
0.093

What value of measured IC50 is listed for CCc1c(N2CCN(C(=O)c3nccc4nc[nH]c34)CC2)c(=O)n2nc(N3C[C@H]4COC[C@H]4C3)nc2n1CC(=O)Nc1ccc(C(F)(F)F)cc1Cl [WO2025049746, Example 95] ?
0.0163

Reference source: BindingDB's records for patent WO2025049746
